Measured IC50, listed per entry.
biological target: T1, recombinant PCNA protein (N-terminal (His)6-PCNA) (human, UniProt P12004 1-261); test: fluorescence polarisation; competition: increasing unlabeled peptide with 50 nM FITC-PL peptide and 1 µM PCNA (monomer concentration); 25 mM HEPES pH 7.4, 10% glycerol, 0.01% Triton X-100; 30 min at room temperature, read at 30°C; Ki from a modified Cheng-Prusoff equation; details: both partners purified
T1 construct: PCNA, human; amplified by PCR from a template plasmid (Genecoepia) into pEV-L8, which has an N-terminal (His)6-tag and a TEV protease recognition site; No TEV cleavage is described; also called human PCNA; source: E. coli BL21(DE3), purified (Ni-NTA)
T1 sequence (P12004 whole entry): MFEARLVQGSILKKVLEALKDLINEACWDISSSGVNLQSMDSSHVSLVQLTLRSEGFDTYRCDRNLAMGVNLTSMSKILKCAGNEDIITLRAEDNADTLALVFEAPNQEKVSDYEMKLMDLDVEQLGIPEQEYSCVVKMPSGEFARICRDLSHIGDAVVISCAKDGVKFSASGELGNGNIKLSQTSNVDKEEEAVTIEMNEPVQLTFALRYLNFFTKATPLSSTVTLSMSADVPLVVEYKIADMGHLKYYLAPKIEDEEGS

binder	IC50 / µM
TLQYLLKHFFKL (12-mer modeled after the PIP Box of PI3-kinase p85α, found by a screen of the human genome; Synthesised on CLEAR Amide resin, so the C-terminus is probably an amide (surmised); also called p85α peptide; PI3-kinase (p85α regulatory domain); source: synthetic peptide (solid phase, HPLC purified)) [PI3K (p85α subunit) 12-mer PIP Box peptide mimic]	7.5
HRFFAGIVWQHV (12-mer modeled after the reverse PIP Box of Akt, found by a screen of the human genome; Synthesised on CLEAR Amide resin, so the C-terminus is probably an amide (surmised); also called Akt peptide; reverse-PIP Box Akt peptide; source: synthetic peptide (solid phase, HPLC purified)) [Akt 12-mer reverse PIP Box peptide mimic]	8.5
RRQTSMTDFYHS (12-mer modeled after the C-terminal PIP Box of the tumor suppressor p21; Synthesised on CLEAR Amide resin, so the C-terminus is probably an amide (surmised); also called p21 peptide; p21 12-amino acid peptide; source: synthetic peptide (solid phase, HPLC purified)) [p21 12-mer PIP Box peptide mimic]	1.8
PGQRSISLRYEG (Synthesised on CLEAR Amide resin, so the C-terminus is probably an amide (surmised); also called Abl peptide; source: synthetic peptide (solid phase, HPLC purified)) [Abl 12-mer PIP Box peptide mimic]	71.3
NRQVSITGFFQR (12-mer modeled after the PIP Box of the p66 subunit of DNA polymerase δ; Synthesised on CLEAR Amide resin, so the C-terminus is probably an amide (surmised); also called p66 peptide; source: synthetic peptide (solid phase, HPLC purified)) [DNA polymerase δ (p66 subunit) 12-mer PIP Box peptide mimic]	67.9
SAVLQKKITDYFHPKK (Synthesised on CLEAR Amide resin, so the C-terminus is probably an amide (surmised); also called control PL peptide; source: synthetic peptide (solid phase, HPLC purified)) [unlabeled POGO-ligase (PL) peptide]	0.145
